compounds and their reported Plate 1-duplicate (% conversion)
# Target Under Test: human AspH (His6-AspH315–758) (Homo sapiens)
# Construct: N-Terminally His6-tagged human AspH315–758 (His6-AspH315–758) was produced in Escherichia coli BL21 (DE3) cells; made in house; host or cells: Escherichia coli BL21 (DE3), pET-28a(+) vector
# Sequence (Q12797 315-758): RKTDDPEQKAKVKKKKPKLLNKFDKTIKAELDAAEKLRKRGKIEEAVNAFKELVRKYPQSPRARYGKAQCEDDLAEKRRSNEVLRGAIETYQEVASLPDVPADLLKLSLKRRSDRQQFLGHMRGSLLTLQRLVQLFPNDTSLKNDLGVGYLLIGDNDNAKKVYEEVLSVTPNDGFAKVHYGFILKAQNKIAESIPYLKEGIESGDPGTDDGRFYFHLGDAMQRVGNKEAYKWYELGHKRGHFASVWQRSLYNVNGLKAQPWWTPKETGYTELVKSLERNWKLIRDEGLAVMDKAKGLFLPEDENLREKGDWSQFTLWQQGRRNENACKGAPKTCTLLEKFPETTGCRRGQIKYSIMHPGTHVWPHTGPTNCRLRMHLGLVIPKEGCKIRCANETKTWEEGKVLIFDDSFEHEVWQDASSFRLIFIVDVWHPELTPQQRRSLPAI
# Test Details: SPE-MS AspH inhibition assay (hFX-CP101-119 substrate hydroxylation)
# Assay type: biochemical
# Condition: AspH-inhibitor screening, Plate 1-duplicate, substrate conversion
Write it as a number; the unit % goes unstated.

Solved entries (count: 5):
Compound: Cc1[nH]c2ccccc2c1CCNCc1ccc(/C=C/C(=O)NO)cc1
Measurement Unit: %
Readout Value: 33.38
--
Compound: CNC(=O)c1cc(Oc2ccc(NC(=O)Nc3ccc(Cl)c(C(F)(F)F)c3)c(F)c2)ccn1
Measurement Unit: %
Readout Value: 25.53
--
Compound: CO[C@H]1C(=O)[C@]2(C)[C@@H](OC)C[C@H]3OC[C@@]3(OC(C)=O)[C@H]2[C@H](OC(=O)c2ccccc2)[C@]2(O)C[C@H](OC(=O)[C@H](O)[C@@H](NC(=O)OC(C)(C)C)c3ccccc3)C(C)=C1C2(C)C
Measurement Unit: %
Readout Value: 62.20
--
Compound: CC(C)n1nc(-c2ccc3oc(N)nc3c2)c2c(N)ncnc21
Measurement Unit: %
Readout Value: 49.77
--
Compound: COc1ccc(-c2cc3c(C)nc(N)nc3n([C@H]3CC[C@H](OCCO)CC3)c2=O)cn1
Measurement Unit: %
Readout Value: 54.58

// returns Plate 1-duplicate (% conversion) for CN1CCc2c(c3ccccc3n2Cc2ccc(C(=O)NO)cc2)C1.Cl [Tubastatin A HCl] with human AspH (His6-AspH315–758) (Homo sapiens); value = 59.59

human AspH (His6-AspH315–758) (Homo sapiens) Plate 1-duplicate (% conversion) of C=CC[C@@H]1/C=C(\C)C[C@H](C)C[C@H](OC)[C@H]2O[C@@](O)(C(=O)C(=O)N3CCCC[C@H]3C(=O)O[C@H](/C(C)=C/[C@@H]3CC[C@@H](O)[C@H](OC)C3)[C@H](C)[C@@H](O)CC1=O)[C@H](C)C[C@@H]2OC.O is 53.37

Observed Plate 1-duplicate (% conversion), human AspH (His6-AspH315–758) (Homo sapiens), C#Cc1cccc(Nc2ncnc3cc(OC)c(OCCCCCCC(=O)NO)cc23)c1 : 16.26

Kindly note: human AspH (His6-AspH315–758) (Homo sapiens), N#CC[C@H](C1CCCC1)n1cc(-c2ncnc3[nH]ccc23)cn1 [INCB018424 (free base, Ruxolitinib)] , Plate 1-duplicate (% conversion) value reported: 50.07

Short answer on human AspH (His6-AspH315–758) (Homo sapiens) for O=C(c1ccc(F)c(F)c1Nc1ccc(I)cc1F)N1CC(O)([C@@H]2CCCCN2)C1 , Plate 1-duplicate (% conversion): 56.05

Item Nc1ncn([C@@H]2O[C@H](CO)[C@@H](O)[C@H]2O)c(=O)n1 was tested on human AspH (His6-AspH315–758) (Homo sapiens); the reported Plate 1-duplicate (% conversion) is 45.96

The compound Cc1ccc(NC(=O)c2ccc(CN3CCN(C)CC3)cc2)cc1Nc1nc(-c2cccnc2)cs1 , tested on human AspH (His6-AspH315–758) (Homo sapiens), showed Plate 1-duplicate (% conversion) of 57.73

So the reported Plate 1-duplicate (% conversion) for Cn1cnc2c(F)c(Nc3ccc(Br)cc3F)c(C(=O)NOCCO)cc21 , on human AspH (His6-AspH315–758) (Homo sapiens), turned out to be 51.43

Lab note: compound CN(C)c1nc(N(C)C)nc(N(C)C)n1 tested on human AspH (His6-AspH315–758) (Homo sapiens); recorded Plate 1-duplicate (% conversion) was 45.30

The compound COCC1(CO)C(=O)C2CCN1CC2 (centres unmarked) , when measured on human AspH (His6-AspH315–758) (Homo sapiens), yielded Plate 1-duplicate (% conversion) of 50.36

Item: CCc1cc2c(cc1N1CCC(N3CCOCC3)CC1)C(C)(C)c1[nH]c3cc(C#N)ccc3c1C2=O | System: human AspH (His6-AspH315–758) (Homo sapiens) | Plate 1-duplicate (% conversion): 47.83

Plate 1-duplicate (% conversion) value, target or system human AspH (His6-AspH315–758) (Homo sapiens), for O=C(/C=C/c1cccc(S(=O)(=O)Nc2ccccc2)c1)NO : 3.94
